Measurement target: T1, HpParB (HpSpo0J) (Helicobacter pylori, UniProt O25758 1-290)
T1 sequence: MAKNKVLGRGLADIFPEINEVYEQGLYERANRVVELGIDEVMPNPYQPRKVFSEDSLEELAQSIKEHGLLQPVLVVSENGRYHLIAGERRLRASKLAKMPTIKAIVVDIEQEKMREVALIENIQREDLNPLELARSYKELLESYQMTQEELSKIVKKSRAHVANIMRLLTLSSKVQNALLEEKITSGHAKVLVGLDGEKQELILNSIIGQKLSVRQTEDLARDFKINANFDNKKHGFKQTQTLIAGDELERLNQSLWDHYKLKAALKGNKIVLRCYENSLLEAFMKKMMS
Experiment notes: fluorescence polarization; 1 mM CTP, 5 mM Mg2+; FP: 20 mM Tris-HCl pH 8.0, 175 mM NaCl, 5 mM MgCl2, 10% glycerol, 1 mM ATP or CTP, 5 nM DNA, room temperature; EMSA: 20 mM Tris-HCl pH 8.0, 50 mM NaCl, 11 mM imidazole, 5 mM MgCl2, 10% glycerol, +/- 2 mM CTP, 37 C, gel at 4 C
Study conditions: protein: recombinant; tags: His (Ni-NTA purified); chain copies: 2; label: 5' Cy3 (FP dye assignment inferred from EMSA); blunt
Measured property: pKd
// field semantics: pKd = negative decimal log of concentration (mol/L)

Req: Find the recorded pKd belonging to Cy3-parS 24-bp (dsDNA) DNA 1: AGGGTGTTCCACGTGAAACAGGGA DNA 2: TCCCTGTTTCACGTGGAACACCCT and report it.
Resp: 6.64
